Target: Btk (Homo sapiens)
Construct: purified from insect cells as a full-length construct containing a N-terminal 6X-His tag; His6 (N); made in house; host or cells: insect cells (Method C)
Sequence (Q06187 whole entry): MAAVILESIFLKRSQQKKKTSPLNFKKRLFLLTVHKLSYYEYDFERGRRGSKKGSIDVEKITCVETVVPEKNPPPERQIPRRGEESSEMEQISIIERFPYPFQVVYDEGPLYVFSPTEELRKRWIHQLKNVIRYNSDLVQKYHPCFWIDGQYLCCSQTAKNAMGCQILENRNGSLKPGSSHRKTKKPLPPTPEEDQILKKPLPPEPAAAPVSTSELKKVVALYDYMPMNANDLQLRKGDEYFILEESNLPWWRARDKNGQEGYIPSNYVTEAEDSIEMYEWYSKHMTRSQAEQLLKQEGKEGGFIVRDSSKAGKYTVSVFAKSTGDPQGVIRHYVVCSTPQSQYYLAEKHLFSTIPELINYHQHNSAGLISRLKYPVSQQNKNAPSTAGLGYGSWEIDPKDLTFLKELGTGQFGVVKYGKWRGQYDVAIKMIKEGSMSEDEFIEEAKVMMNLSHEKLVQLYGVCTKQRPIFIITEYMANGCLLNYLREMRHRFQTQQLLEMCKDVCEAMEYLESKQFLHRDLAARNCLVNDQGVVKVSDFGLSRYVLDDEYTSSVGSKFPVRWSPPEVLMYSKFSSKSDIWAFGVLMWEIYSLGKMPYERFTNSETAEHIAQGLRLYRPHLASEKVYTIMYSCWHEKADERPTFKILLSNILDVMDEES
Assay: Btk in vitro inhibitory activity (one of Method A TR-FRET, Method B electrophoretic mobility shift, Method C radiometric filter binding)
Type: biochemical
Details: wild-type Btk; read-out: Btk-WT IC50
pIC50: −log10 of the molar value.
# if value of pIC50 reaches 8, tag Fulfilled; if it stays below, tag Not fulfilled

| compound | test target | qualitative label |
| --- | --- | --- |
| C[C@H]1CC[C@@H](Nc2n[nH]c3nccc(-c4ccc(CNC(=O)c5noc(C(C)(C)C)n5)c(F)c4)c23)CN1C=O [Example 68] | Btk (Homo sapiens) | Fulfilled |
| C=CC(=O)N1CC[C@@H](Nc2n[nH]c3nccc(-c4cccc(NC(=O)c5ccc(C(C)(C)C)cc5)c4C)c23)C1 [Compound 9] | Btk (Homo sapiens) | Fulfilled |

Query: Test whether the compound CC(C)(C)n1cc(C(=O)NCc2ccc(-c3ccnc4[nH]nc(N[C@@H]5CCNC5)c34)cc2F)cn1 [Example 76] records pIC50 of 8 or higher.
Result: Not fulfilled

Query: And what about the compound C[C@H]1CC[C@@H](Nc2n[nH]c3nccc(-c4ccc(CNC(=O)c5ccc(C(C)(C)O)cc5F)c(F)c4)c23)CN1C(=O)N(C)C [Example 414] ?
Result: Not fulfilled

Query: And what about the compound C[C@@H](NC(=O)c1nc(C(C)(C)C)no1)c1ccc(-c2ccnc3[nH]nc(N[C@@H]4CC[C@H](C)N(C(=O)N(C)C)C4)c23)cc1F [Example 193] ?
Result: Fulfilled

Query: And what about the compound CCc1cc(C(=O)NCc2ccc(-c3ccnc4[nH]nc(N[C@@H]5CCCN[C@@H]5C)c34)cc2F)no1 [Example 170] ?
Result: Not fulfilled

Query: And what about the compound CC#CC(=O)N1CC[C@@H](Nc2n[nH]c3nccc(-c4ccc(C5(NC(=O)c6noc(C(C)(C)C)n6)CC5)cc4)c23)C1 [Compound 28] ?
Result: Fulfilled

Query: And what about the compound CN1C[C@@H](Nc2n[nH]c3nccc(-c4ccc(CNC(=O)c5nc(C(C)(C)C)no5)c(F)c4)c23)CC1=O [Example 392] ?
Result: Fulfilled

Query: And what about the compound CN(C)C(=O)N1CC[C@H](Nc2n[nH]c3nccc(-c4ccc(CNC(=O)c5ccc(C(C)(C)C)cc5)c(F)c4)c23)C1 [Example 114] ?
Result: Not fulfilled

Query: And what about the compound C[C@@H]1[C@H](Nc2n[nH]c3nccc(-c4ccc(CNC(=O)c5noc(C(C)(C)C)n5)c(F)c4)c23)CCCN1CC#N [Example 142] ?
Result: Not fulfilled
